B1: RIT1 (parent)
chain: FHALVREIRRKEKEAVLAMEKKSK

Variants of: B1
Protocol description: protein stability index of a GFP-peptide fusion (GPS, HEK-293T) (PSI 1-6); higher = more stable;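 further: lentivirally expressed fusions sorted by FACS into six bins by GFP to DsRed ratio, PSI derived from sequencing read proportions per bin multiplied by bin number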
Experimental context: c terminus: a fixed tail appended
As shown below, each of these variants has a reported protein stability index value.

Task: Would you kindly share the measured protein stability index for S23T ?
Output: 1.67

Task: Would you kindly share the measured protein stability index for S23M ?
Output: 1.82

Task: Would you kindly share the measured protein stability index for I8E ?
Output: 2.87

Task: Would you kindly share the measured protein stability index for A18P ?
Output: 1.23

Task: Would you kindly share the measured protein stability index for H2K ?
Output: 2.73

***
Task: Would you kindly share the measured protein stability index for K13T ?
Output: 1.77

Task: Would you kindly share the measured protein stability index for K13V ?
Output: 1.26

Task: Would you kindly share the measured protein stability index for S23L ?
Output: 2.59

Task: Would you kindly share the measured protein stability index for R10Q ?
Output: 1.36

Task: Would you kindly share the measured protein stability index for K24H ?
Output: 1.86

Task: Would you kindly share the measured protein stability index for I8S ?
Output: 3.08
